# System: U2OS
# TEST_METHOD_NOTES: Incucyte cell viability with U2OS; also: unitless GR value; below 1 slowed growth and below 0 cell loss
# Assay type: toxicity, cell-based
# STUDY_CONDITIONS: human, 0 h, 10 µM, compound concentration 10 uM, replicate number 1
Hi there, I'd appreciate the recorded Growth Rate for every entry that follows.
Answers are plain numbers.

{"columns": ["COMPOUND", "TARGET_ENTITY", "Growth Rate"],
 "data": [
  ["CN[C@@H](C)C(=O)N[C@H](C(=O)N1CCC[C@H]1C(=O)N[C@@H]1CCCc2ccccc21)C1CCCCC1.Cl", "U2OS", 0.24]
]}

I would be grateful if you could provide Growth Rate for each of the following entries.
1. COc1nc2ccc([C@@](O)(c3ccc(Cl)cc3)c3cncn3C)cc2c(Cl)c1Cc1ccc(-n2cccn2)cc1 [JNJ-53721590]
2. CC[C@H](CO)Nc1nc(Nc2cccc(-c3ccccn3)c2)c2ncn(C(C)C)c2n1.Cl.O
3. CC(C)(C)c1cnc(CSc2cnc(NC(=O)C3CCNCC3)s2)o1 [BMS-387032]
4. O=C(Nc1c[nH]nc1-c1nc2cc(CN3CCOCC3)ccc2[nH]1)NC1CC1 [AT-9283]
5. N[C@@H]1CCCC[C@H]1Oc1ccc2ncc(-c3cc4ccccc4o3)n2n1

Reply:
1: -1; 2: -0.98; 3: -1; 4: -1; 5: -0.99

I would be grateful if you could provide Growth Rate for each of the following entries.
1. CC(C)(C)OC(=O)CN1C(=O)c2c(OCC(=O)O)cccc2Oc2ccc(C(F)(F)F)cc21
2. c1ccc2c(c1)SCc1c-2[nH]c2ccccc12
3. CC(Oc1cc(-c2cnn(C3CCNCC3)c2)cnc1N)c1c(Cl)ccc(F)c1Cl (centres undefined)

Reply:
[0.59, -0.33, -1]

* * *

# Test system: HEK-293T
# TEST_METHOD_NOTES: Incucyte cell viability with HEK293T; also: unitless GR value; below 1 slowed growth and below 0 cell loss
# Assay type: toxicity, cell-based
# STUDY_CONDITIONS: human, 18 h, 10 µM, compound concentration 10 uM, replicate number 1
Numbered stars: 1 amine (or outer) side, 2 acyl side, 3 side chain; on linkers, the order of the positions; unused ones are H or OH. Bridge positions count the residues as written; N and C are the ends. Square brackets hold non-standard residues; d marks the D form. Peptide text beside a SMILES is read from it. I, II: the chains in the order shown. Hexamethylenediamine = C(CCCN[*:2])CCN[*:1]; Dip = N[C@H](C(=O)O)C(c1ccccc1)c1ccccc1; Chg = N[C@H](C(=O)O)C1CCCCC1; NMeA = CN[C@@H](C)C(=O)O
OBSERVED_PROPERTY: Growth Rate

{"columns": ["MOLECULE", "Growth Rate"],
 "data": [
  ["Cc1cc2nc(N3CCC(C(=O)NC4CCCC4)CC3)n(C(C)C)c2cc1C", 0.97],
  ["COc1cc2ncnc(Nc3ccc(F)c(Cl)c3)c2cc1OCCN(C)C[C@H](C)O", 0.65],
  ["CN[C@@H](C)C(=O)N[C@H](C(=O)N1CCC[C@H]1C(=O)N[C@H](C(=O)NCCCCCCNC(=O)[C@@H](NC(=O)[C@@H]1CCCN1C(=O)[C@@H](NC(=O)[C@H](C)NC)C1CCCCC1)C(c1ccccc1)c1ccccc1)C(c1ccccc1)c1ccccc1)C1CCCCC1 (I: H-[NMeA][Chg]P[Dip] / II: H-[NMeA][Chg]P[Dip]; linker I:C-II:C via Hexamethylenediamine)", -0.3],
  ["Cl.Cl.NC1(c2ccc(-c3nc4ccn5c(=O)[nH]nc5c4cc3-c3ccccc3)cc2)CCC1", -0.54],
  ["CN(C)[C@H]1CCN(c2cc(C(F)(F)F)c(C#N)c(Nc3cccc(CCC(=O)O)c3)n2)C1.O=C(O)C(F)(F)F", 0.94],
  ["CN1CCN([C@H]2CC[C@@H](n3cc(-c4ccc(Oc5ccccc5)cc4)c4c(N)ncnc43)CC2)CC1", -0.69]
]}

I would be grateful if you could provide Growth Rate for each of the following entries.
1. Cl.O=S(=O)(c1cccc2c(I)cccc12)N1CCCNCC1
2. CCOC(=O)C1=C[C@]2(CC)CCCN3CCc4c(n1c1ccccc41)[C@@H]32
3. CN(C)C(=O)c1cc2cnc(Nc3ccc(N4CCN(CCCCNC(=O)COc5cccc6c5C(=O)N(C5CCC(=O)NC5=O)C6=O)CC4)cn3)nc2n1C1CCCC1 (stereo unspecified)
4. Cc1onc(O)c1CC(N)C(=O)O [(R,S)-AMPA]
5. C[C@]12CC[C@@H]3c4ccc(O)cc4CC[C@H]3[C@@H]1C[C@H]1OC(=O)C[C@]12O
6. COC1(C#Cc2ccc(Cl)c(-c3ncc4c(n3)-c3sc(NC(C)=O)nc3CC4)c2)CCN(C)CC1

Reply:
[0.81, 0.95, 0.88, 0.78, 0.36, -0.17]

I would be grateful if you could provide Growth Rate for each of the following entries.
1. Fc1ccc(-c2c3cccc(C(F)(F)F)c3nn2Cc2ccc(F)cc2Cl)cc1
2. CC1(C)Oc2ncnc(N)c2N=C1c1ccc([C@H]2CC[C@H](CC(=O)O)CC2)cc1
3. c1ccc2c(c1)SCc1c-2[nH]c2ccccc12
4. COCc1c(-c2cc3cc(C)cc(OC)c3s2)c2c(N)ncnn2c1CN[C@@H]1CCNC1=O

Reply:
0.77
0.89
-0.53
0.61

* * *

# System: HEK-293T
# TEST_METHOD_NOTES: Incucyte cell viability with HEK293T; also: unitless GR value; below 1 slowed growth and below 0 cell loss
# Type: toxicity, cell-based
# STUDY_CONDITIONS: human, 12 h, 10 µM, compound concentration 10 uM, replicate number 1
OBSERVED_PROPERTY: Growth Rate

Below, each entry is followed by its recorded Growth Rate result.
{"columns": ["COMPOUND", "OBSERVED_PROPERTY", "VALUE_MEASURED"],
 "data": [
  ["N[C@@H]1CCCC[C@H]1Oc1ccc2ncc(-c3cc4ccccc4o3)n2n1", "Growth Rate", -0.86],
  ["Cc1ccc2c(NS(=O)(=O)c3ccccc3Cl)cccc2c1Oc1ncccc1-c1ccnc(N[C@H]2CCCNC2)n1.Cl", "Growth Rate", 0.33],
  ["COc1cc(-c2cc3ncccc3c(OC[C@H]3CNC(=O)C3)n2)cc(OC)c1OC1CCOCC1.O=C(O)C(F)(F)F", "Growth Rate", 0.17],
  ["COc1cc(/C=C(\\C#N)C(=O)Nc2nnc(C(F)(F)F)s2)ccc1OCc1ccc(C(F)(F)F)cc1C(F)(F)F", "Growth Rate", 0.72],
  ["COc1cc(-c2cc(-c3cccc(O)c3)cnc2N)cc(OC)c1OC", "Growth Rate", -0.58],
  ["CC(C)(C)c1ccc(NC(=O)N2CCN(c3ncccc3Cl)CC2)cc1", "Growth Rate", -0.41],
  ["O=C(NCc1ccc(F)cc1)C1CCN(S(=O)(=O)c2cc(Cl)cc(Cl)c2)CC1", "Growth Rate", 0.95],
  ["Cc1cc(Cn2c(N3CC4(CNC4)C3)nc3c(N4CCN(C)CC4)cc(Cl)cc32)cc(C)c1F", "Growth Rate", -0.88]
]}

I would be grateful if you could provide Growth Rate for each of the following entries.
1. Cn1c(C2(NC(=O)c3ccc(NCC4CCCCC4)nc3)CCC2)nc2ccc(/C=C/C(=O)O)cc21
2. COc1ncc(-c2cc(-c3ncc(CN4C[C@@H](C)O[C@@H](C)C4)o3)c3cn[nH]c3c2)cc1NS(C)(=O)=O
3. CN[C@@H](C)C(=O)N[C@H](C(=O)N1CCC[C@H]1C(=O)Nc1sc(-c2ncco2)nc1-c1ccccc1)C1CCCCC1
4. O=C1NCCSc2c1sc1ccc(O)cc21
5. COc1ccc(F)c(F)c1C(=O)c1cnc(NC2CCN(S(C)(=O)=O)CC2)nc1N
6. C[S+](C)[O-] [DIMETHYL SULFOXIDE]

Reply:
0.81
-0.15
0.93
-0.4
-0.1
0.83

I would be grateful if you could provide Growth Rate for each of the following entries.
1. Cn1cc(-c2cnc3ccc4ccc(CS(=O)(=O)NCc5ccccn5)cc4c(=O)c3c2)cn1
2. Cc1nc2c(cc1F)c(-c1nnc3c(n1)NC(=O)C3(C)C)nn2Cc1cccc(F)c1F
3. O=C(Nc1ccc(OC(F)(F)Cl)cc1)c1cnc(N2CC[C@@H](O)C2)c(-c2ccn[nH]2)c1
4. CN[C@@H](C)C(=O)N[C@H](C(=O)N1CCC[C@H]1C(=O)N[C@@H]1CCCc2ccccc21)C1CCCCC1.Cl
5. C=C1/C(=C\C=C2/CCC[C@]3(C)[C@@H]([C@H](C)CCCC(C)(C)O)CC[C@@H]23)C[C@@H](O)C[C@@H]1O
6. O=C(Nc1ccc(C(O)(C(F)(F)F)C(F)(F)F)cc1)c1ccc(C(F)(F)F)cc1
7. O=C(Nc1cc(-c2cn[nH]c2)ccc1N1CCOCC1)c1ccc(-c2ccc3ncccc3c2)o1
8. COc1cc2ncnc(Nc3cccc(O)c3)c2cc1OC

Reply:
[0.39, 0.95, -0.32, 0.81, 0.61, -0.13, -0.07, 0.56]

I would be grateful if you could provide Growth Rate for each of the following entries.
1. CC(C)(C)OC(=O)CN(Cc1ccc(Cl)cc1)Cc1ccc([N+](=O)[O-])s1
2. Cn1ncnc1COc1nn2c(-c3cc(F)ccc3F)nnc2cc1C(C)(C)C

Reply:
1. 0.78
2. 0.42

I would be grateful if you could provide Growth Rate for each of the following entries.
1. Cc1c[nH]c(-c2cnc(NCCNc3ccc(C#N)cn3)nc2-c2ccc(Cl)cc2Cl)n1
2. O=C1NC(Nc2ccccc2)=N/C1=C\c1ccc2c(c1)OCO2
3. CN(C)C/C=C/C(=O)Nc1cccc(S(=O)(=O)N2CCC(NC(=O)c3n[nH]cc3NC(=O)c3c(Cl)cc(Cl)cc3Cl)CC2)c1
4. Cl.O=S(=O)(c1cccc2c(I)cccc12)N1CCCNCC1
5. Oc1cc2c(cc1O)CN(C(=S)NCCc1ccc(Cl)cc1)CCC2 [CAPSAZEPINE]
6. CCC(=O)N[C@@H]1CC[C@H](C(=O)N(C)c2ccc(-c3nc4ccccc4o3)cc2)C1
7. CCCS(=O)(=O)Nc1ccc(F)c(Nc2ncnc3cnc(-n4cnc(C)c4)nc23)c1F

Reply:
[0.49, 0.37, -0.49, 0.3, 0.04, 0.47, 0.77]

I would be grateful if you could provide Growth Rate for each of the following entries.
1. CC(C1CC2CCC1C2)n1c(S)nnc1-c1ccco1 (stereo unspecified)
2. CCNCCNC(=O)c1c(C)[nH]c(/C=C2\C(=O)Nc3ccc(F)cc32)c1C
3. CC(C)Oc1ccc(Cc2ccc(NC3=NCCN3)cc2)cc1
4. C=C(F)C(=O)N1CCN(c2nc(OC[C@@H]3CCCN3C)nc3c2CCN(c2cccc4cccc(Cl)c24)C3)C[C@@H]1CC#N
5. CC(=O)c1c(C)c2cnc(Nc3ccc(N4CCNCC4)cn3)nc2n(C2CCCC2)c1=O

Reply:
1: 0.81; 2: -0.52; 3: 0.09; 4: -0.28; 5: 0.77
